A set of compounds tested on UniProt:Q05941, with measured IC50:
Give bare numbers, in nM.

{"columns": ["compound", "target-entity", "readout-units", "data-value"],
 "data": [
  ["C1=C(c2ccc3ccccc3c2)C2CCN1CC2 [Compound B1]", "UniProt:Q05941", "nM", 58]
]}

Continue with the compound presented below.
Entry under test: c1ccc2cc(C3CN4CCC3CC4)ccc2c1 (racemic) [Compound C1] . Its IC50 was 150
